assay: serotonin-gated TRPC4 signal block – cell-based, second counter screen, HEK293 TRPC4/5HT1a, Fluo-4, counter-screen for TRPC4 inhibitor project, confirmation (AID 434978); conditions: Fluo-4 calcium flux, at 10 µM, serotonin added to trigger calcium flux
Calls of active or inactive are those of the source.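 How the source made its calls: active means primary screen active whose calcium signal fell more than 3 SD beyond the full-serotonin control mean in both duplicate plates; inactive means the rest.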
Labels: active, inactive

INSERT INTO results (molecule, class_name) VALUES
  ('CC1(C)CN=c2s/c(=C\c3ccc(Cl)cc3)c(=O)n2C1', 'inactive'),
  ('COc1ccc(C(=O)CCC(=O)Nc2cccc(Cl)c2)cc1', 'inactive'),
  ('Cc1ccc(-n2cc(CNC(C)c3cnn(C)c3)c(-c3ccc(F)cc3)n2)cc1 (stereo unspecified)', 'inactive'),
  ('Cc1ccc(NS(=O)(=O)c2ccc(NS(=O)(=O)c3cccs3)cc2)cc1', 'inactive'),
  ('Fc1ccc(CN2C3=NCCCN3c3ccccc32)cc1', 'inactive'),
  ('CC(=O)Nc1ccc(CN2CCCC(CO)(Cc3ccccc3C)C2)cc1 (stereo unspecified)', 'inactive'),
  ('CN(C)CCCn1c(=O)n(CCc2ccccc2)c(=O)c2c3c(sc21)CCCCC3', 'inactive'),
  ('CCCCN(Cc1ccccc1)C(=O)C1CCN(Cc2sccc2C)CC1', 'active'),
  ('O=C(N/N=C/c1ccccc1F)NC1CCCCC1', 'inactive'),
  ('CCN(CC)CCn1c(=N)n(CC(O)COc2cccc(C)c2)c2ccccc21 (stereo unspecified)', 'active'),
  ('Cc1cc(C)c(S(=O)(=O)c2ccccc2C)c(OCC(C)(C)C)n1', 'active');

====

biological target: Short transient receptor potential channel 4 (Mus musculus) (UniProt Q9QUQ5); assay: block of DAMGO-driven TRPC4 calcium entry – cell-based, HEK293 TRPC4/mu-opioid, Fluo-4 calcium, dose response (AID 434942); details: HEK293 TRPC4/mu-opioid cells, DAMGO-evoked Fluo-4 calcium ratio; series mostly up to 20 µM
Sequence (Q9QUQ5 whole entry, looked up): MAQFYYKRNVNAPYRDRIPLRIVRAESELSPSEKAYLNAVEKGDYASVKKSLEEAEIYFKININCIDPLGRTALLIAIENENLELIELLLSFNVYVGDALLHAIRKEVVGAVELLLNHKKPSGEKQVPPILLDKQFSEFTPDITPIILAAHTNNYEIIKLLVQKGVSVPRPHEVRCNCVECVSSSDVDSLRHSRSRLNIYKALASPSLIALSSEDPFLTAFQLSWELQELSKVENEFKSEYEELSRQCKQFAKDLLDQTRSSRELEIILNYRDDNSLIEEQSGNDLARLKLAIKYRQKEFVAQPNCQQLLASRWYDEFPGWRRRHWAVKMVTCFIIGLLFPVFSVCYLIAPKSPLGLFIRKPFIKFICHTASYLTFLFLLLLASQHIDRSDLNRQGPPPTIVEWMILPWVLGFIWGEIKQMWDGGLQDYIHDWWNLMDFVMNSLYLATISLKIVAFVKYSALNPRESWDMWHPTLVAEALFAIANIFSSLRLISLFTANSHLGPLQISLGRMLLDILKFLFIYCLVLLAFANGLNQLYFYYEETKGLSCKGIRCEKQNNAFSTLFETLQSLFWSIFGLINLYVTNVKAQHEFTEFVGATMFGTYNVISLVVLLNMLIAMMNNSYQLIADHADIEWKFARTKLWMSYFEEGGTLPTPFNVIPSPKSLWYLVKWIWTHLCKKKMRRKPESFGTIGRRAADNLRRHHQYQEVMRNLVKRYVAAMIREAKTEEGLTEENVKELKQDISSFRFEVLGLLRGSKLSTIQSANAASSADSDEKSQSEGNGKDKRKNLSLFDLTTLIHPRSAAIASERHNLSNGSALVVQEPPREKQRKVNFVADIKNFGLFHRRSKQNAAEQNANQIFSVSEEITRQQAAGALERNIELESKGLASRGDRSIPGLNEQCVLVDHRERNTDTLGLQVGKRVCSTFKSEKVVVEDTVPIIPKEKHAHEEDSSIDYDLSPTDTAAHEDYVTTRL
Entries with a potency or affinity are not part of this list. The source made the active and inactive calls.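 Rule for the calls: active = primary screen inhibitor hit that blocks the TRPC4 channel at some tested dose, yielding a dose curve; inactive = the rest.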
Readout Kind: outcome

INSERT INTO assay_data (compound, result) VALUES
  ('CC(C)(C)n1nnnc1C(c1ccc(Cl)cc1)N(Cc1cccnc1)Cc1ccco1 (configuration not stated)', 'inactive'),
  ('CC(=O)n1cc([C@@H]2C=C(C(=O)NCc3ccccc3)O[C@H](OCc3ccc(CO)cc3)C2)c2ccccc21', 'inactive'),
  ('Cc1cc(C)cc(N(CC(=O)Nc2ccc(C)cc2Cl)S(=O)(=O)c2c(C)[nH]c(=O)[nH]c2=O)c1', 'inactive'),
  ('Cn1c(SCCOc2ccccc2F)nc2ccccc2c1=O', 'inactive'),
  ('CCCn1c(NCc2cc(OC)ccc2OC)nc2ccccc21', 'inactive'),
  ('COc1ccc(Br)cc1CN1CCC(N2CCCC2)CC1', 'inactive'),
  ('CCCCN(C)CCNC(=O)C1CCCN(S(=O)(=O)c2cccc3nsnc23)C1 (configuration not stated)', 'inactive'),
  ('CN(C)S(=O)(=O)N1CCC(CCCC2CCN(S(=O)(=O)N(C)C)CC2)CC1', 'inactive'),
  ('CC(C)(C)c1ccc(-c2nc3cc(N)ccc3o2)cc1', 'inactive'),
  ('CCCn1c(N)c(C(=O)CSc2n[nH]c(-c3ccc(C)cc3)n2)c(=O)[nH]c1=O', 'inactive'),
  ('CCOP(=O)(OCC)c1nc(-c2ccc(Cl)cc2Cl)oc1N1CCCCC1', 'inactive'),
  ('O=C(/C=C/c1ccc(Cl)cc1)N(Cc1ccccc1)C1CCS(=O)(=O)C1 (configuration not stated)', 'inactive'),
  ('Cc1sc(NC(=O)C2CCCCC2C(=O)O)c(C(N)=O)c1-c1ccc(C(C)(C)C)cc1 (configuration not stated)', 'inactive'),
  ('CC(Oc1ccc(Cl)cc1Cl)C(=O)N(C)c1ccccc1 (configuration not stated)', 'inactive'),
  ('CCOC(=O)C(CCCCCOc1ccc([N+](=O)[O-])cc1)C(=O)OCC', 'inactive'),
  ('CC[n+]1c(/C=C/Nc2ccccc2)sc2ccccc21', 'inactive'),
  ('COc1ccc2nc(SCCN(C)C)[nH]c2c1', 'inactive'),
  ('CN(C)c1ccc(NC(=O)C2C3C=CC(C3)C2C(=O)O)cc1 (configuration not stated)', 'inactive'),
  ('Cc1sc2ncnc(NCC(c3ccco3)N(C)C)c2c1C (configuration not stated)', 'inactive'),
  ('OC1(c2ccc(Cl)cc2)CN(c2ccccc2)C2=[N+]1CCS2 (configuration not stated)', 'inactive'),
  ('COc1ccc(C(CNC(=O)/C=C/c2c(Cl)nc3ccccn23)N(C)C)cc1 (configuration not stated)', 'inactive'),
  ('COc1cc(Br)cc(C2C3=C(CCCC3=O)N(c3ccc(F)cc3)C3=C2C(=O)CCC3)c1O', 'inactive'),
  ('CCN1CCN(c2ccc(S(=O)(=O)N3CCCCC3)cc2NC(=O)c2cccc(OC(F)F)c2)CC1', 'inactive'),
  ('O=c1[nH]ncc(N2CCN(Cc3ccccc3)CC2)c1Cl', 'inactive'),
  ('Cc1ccccc1Cn1c(CN2CCc3ccccc3C2)nc2c1c(=O)n(C)c(=O)n2C', 'inactive'),
  ('CCOCCCn1cnc2c(c1=O)c1nc3ccccc3nc1n2-c1ccc(C)cc1', 'inactive'),
  ('N#CC1=C(N)C(C#N)(C#N)C(c2cccnc2)C2CC(c3ccccc3)CC=C12 (configuration not stated)', 'inactive'),
  ('COc1ccc(C(CNC(=O)c2cc(C)on2)N(C)C)cc1 (configuration not stated)', 'inactive'),
  ('CCOC(=O)CC(NC(=O)c1cc2cc(Br)ccc2oc1=O)c1cccc([N+](=O)[O-])c1 (configuration not stated)', 'inactive'),
  ('CN(C)c1ccc(-c2sc(Nc3ccccc3)n[n+]2-c2ccc(F)cc2)cc1', 'inactive'),
  ('O=C(CC1C(=O)NCCN1Cc1cccc(Oc2ccccc2)c1)NCCc1ccccn1 (configuration not stated)', 'inactive'),
  ('CN(C)C(CNC(=O)c1cccc(S(=O)(=O)N(C)C)c1)c1ccccc1 (configuration not stated)', 'inactive'),
  ('CCCCN(CC)CCCNC(=O)c1cc2cc3ccc(C)cc3nc2o1', 'inactive'),
  ('CSCC[C@H](NC(=O)N1CCn2c1nc1ccccc12)C(=O)NCc1ccc(F)cc1', 'inactive'),
  ('CN1/C(=C\C=[N+](C)c2ccccc2)C(C)(C)c2ccccc21', 'inactive'),
  ('COc1ccc(CSCCN)cc1Cl', 'inactive'),
  ('CCOc1cc(/C=C(\C#N)C(=O)Nc2cccc(C(=O)O)c2)cc(Br)c1OC(=O)c1ccc(OC)cc1', 'inactive'),
  ('Cc1ccc(C(=O)OCCN2CCN(c3ncc(C(F)(F)F)cc3Cl)CC2)cc1', 'inactive'),
  ('O=[N+]([O-])c1cc(Cl)cc(/C=N/NC(=S)Nc2ccc(S(=O)(=O)N3CCOCC3)cc2)c1O', 'inactive'),
  ('CCc1c(C)nc2c(-c3ccccc3)c(C)nn2c1Nc1ccc(NC(C)=O)cc1', 'inactive'),
  ('Cn1c(=O)c2c(nc(CN3CCc4ccccc4C3)n2Cc2ccccc2)n(C)c1=O', 'inactive'),
  ('COc1ccc(CCN2C(=S)N(C)C(=O)C2CC(=O)Nc2ccc(F)cc2)cc1 (configuration not stated)', 'inactive');

====

system: TRPC4 (mouse), co-expressed with 5HT1a in HEK293; assay: enhancement of serotonin-evoked TRPC4 response – cell-based, second counter screen, HEK293 TRPC4/5HT1a, Fluo-4, counter-screen for TRPC4 potentiator project, confirmation (AID 434979); settings: Fluo-4 calcium flux, at 10 µM, serotonin added at its EC20 dose
Activity calls are given as the source filed them.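 Rule for the calls: active = signal rise over 3 SD above mean of control wells given weak agonist, in both repeats and first screen; inactive = the rest.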
Labels: 1 (yes) (active), 0 (no) (inactive)

INSERT INTO assay_data (compound_smiles, class_name) VALUES
  ('Cc1cc(SCC(=O)c2cccc([N+](=O)[O-])c2)nc(=O)[nH]1', '1 (yes)'),
  ('COc1ccc(C(=O)Nc2ccccc2N2CCN(C(=O)c3ccccc3)CC2)cc1Br', '0 (no)'),
  ('Cc1ccc(Cn2c(=N)c(C(=O)NCCN3CCOCC3)cc3c(=O)n4ccccc4nc32)cc1', '0 (no)'),
  ('O=C(NCc1ccccc1)C1=C[C@H](c2ccc(C(F)(F)F)cc2)C[C@H](OCc2ccc(CO)cc2)O1', '1 (yes)'),
  ('C/C=C/Cn1c(SCCCc2ccccc2)nc2c1c(=O)[nH]c(=O)n2C', '1 (yes)');

====

assay: nonspecific calcium rise without TRPC4 – cell-based, HEK293 mu-opioid receptor line, counter-screen for TRPC4 activator project, confirmation (AID 449723); conditions: HEK293 mu-opioid cells, Fluo-4 calcium fluorescence, at 10 µM;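 further: counter screen cells carry the mu-opioid receptor alone and lack TRPC4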
Activity calls are given as the source filed them.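 The calls were made as follows: active = hit in primary screen, with calcium signal over 5 SD above buffer well mean in both duplicates; inactive = the rest.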
Labels: 1 = active, 0 = inactive

INSERT INTO results (compound, class_name) VALUES
  ('CC1(C)CC2CC(C)(CN2CC(O)COc2ccccc2)C1 (configuration not stated)', 0),
  ('O=C(CSc1nnc(-c2ccc(Cl)cc2Cl)n1C1CCCCC1)NC1CCS(=O)(=O)C1 (configuration not stated)', 0),
  ('Cc1ccc(-n2cccn2)c(CN2CCCC(C(=O)c3ccc4c(c3)OCO4)C2)c1 (configuration not stated)', 0),
  ('Oc1ccc(CN2CCc3ccccc3C2)c2cccnc12', 0),
  ('Cc1[nH]nc(-c2ccc(O)cc2O)c1-c1ccc(Cl)cc1', 0),
  ('C#CC[N+]1(CC#Cc2cccc3ccccc23)CCOCC1', 0),
  ('Cc1ccc(-c2nn(-c3ccccc3)cc2C(=O)Nc2ccc(C(=O)O)cc2)cc1', 0),
  ('O=C(NCc1ccccc1)C1=C[C@H](c2ccc(Br)cc2)C[C@H](OCc2ccc(CO)cc2)O1', 0),
  ('CC(Nc1nc(N2CCCC2)nc2ccccc12)c1ccccc1 (configuration not stated)', 0),
  ('Cc1cccc(C(=O)Nc2sc(-c3ccccc3)cc2C(=O)O)c1', 0),
  ('CC1CCCN(c2c3c(nc4ccccc24)CCCC3)C1 (configuration not stated)', 0),
  ('Cc1ccc(C)c(OCCCCN2CCNCC2)c1C', 0),
  ('CCc1ccc(C(=O)c2cnc3ccc(OC)cc3c2N2CCN(CC)CC2)cc1', 0),
  ('Cc1c(CCOC(=O)c2ccc([N+](=O)[O-])cc2)sc[n+]1CC(=O)c1ccccc1', 0),
  ('COCCn1c(SCC(=O)Nc2ccccc2OC)nc2c([nH]c3ccccc32)c1=O', 0),
  ('Brc1ccc(N/N=C(/N=Nc2nn[nH]n2)c2ccccc2)cc1', 0),
  ('CN(C)S(=O)(=O)N1CCC(CCCC2CCN(S(=O)(=O)N(C)C)CC2)CC1', 0),
  ('CCN1CCN(c2nc(N)c([N+](=O)[O-])c(Nc3ccc(C)cc3)n2)CC1', 0),
  ('CN(C)CCCN(C(=O)c1ccc(S(=O)(=O)N2CCCCCC2)cc1)c1nc2c(F)cc(F)cc2s1', 0),
  ('CN(C)CCOc1cc(Cl)cc(Cl)c1', 0),
  ('CC(=O)c1c(O)c(C)c(O)c2c1OC1=CC(=O)C(C(C)=O)C(=O)[C@@]12C (some centres not stated)', 1),
  ('COc1ccc(-c2n[nH]c(C)c2-c2ccccc2OC)c(O)c1', 0);
